Test system: A549-GM130-SQSTM1
Test: lowest phenotypically active concentration; higher = less potent
Settings: treatment time: 24 h
Where a name gives a salt, the structure may show the parent alone.
Quantity: lowest phenotypically active concentration (µM)

>  <Compound>
COc1ccc(S(=O)(=O)ON=C2C=C(C)C(=O)C(C)=C2)cc1

>  <Tested system>
A549-GM130-SQSTM1

>  <Relation operator>
=

>  <Quantitative readout>
9

$$$$
>  <Compound>
N#CC[C@@H](C1CCCC1)n1cc(-c2ncnc3[nH]ccc23)cn1 [ruxolitinib-(S)]

>  <Tested system>
A549-GM130-SQSTM1

>  <Relation operator>
=

>  <Quantitative readout>
9

$$$$
>  <Compound>
CNC(=O)c1ccccc1Sc1ccc2c(/C=C/c3ccccn3)n[nH]c2c1

>  <Tested system>
A549-GM130-SQSTM1

>  <Relation operator>
=

>  <Quantitative readout>
1

$$$$
>  <Compound>
Nc1ccc(N=Nc2ccccc2)c(N)n1

>  <Tested system>
A549-GM130-SQSTM1

>  <Relation operator>
=

>  <Quantitative readout>
1

$$$$
>  <Compound>
COc1cc(NC(=O)c2cccc(-n3cc(NC(=O)Nc4cccc(C)c4)cn3)c2)cc(OC)c1OC

>  <Tested system>
A549-GM130-SQSTM1

>  <Relation operator>
=

>  <Quantitative readout>
3

$$$$
>  <Compound>
O=c1cc(-c2ccccc2)oc2cc(O)cc(O)c12

>  <Tested system>
A549-GM130-SQSTM1

>  <Relation operator>
=

>  <Quantitative readout>
9

$$$$
>  <Compound>
CC(C)NC[C@H](O)COc1cccc2ccccc12 [(S)-(-)-Propranolol hydrochloride]

>  <Tested system>
A549-GM130-SQSTM1

>  <Relation operator>
=

>  <Quantitative readout>
9

$$$$
>  <Compound>
O=c1c(O)c(-c2ccc(O)cc2)oc2cc(O)cc(O)c12

>  <Tested system>
A549-GM130-SQSTM1

>  <Relation operator>
=

>  <Quantitative readout>
9

$$$$
>  <Compound>
Cc1ccc(Nc2nccc(N(C)c3ccc4c(C)n(C)nc4c3)n2)cc1S(N)(=O)=O

>  <Tested system>
A549-GM130-SQSTM1

>  <Relation operator>
=

>  <Quantitative readout>
3

$$$$
>  <Compound>
C[C@]12CCC(=O)C=C1CC[C@@H]1[C@@H]2[C@@H](O)C[C@@]2(C)[C@H]1CC[C@]2(O)C(=O)CO [hydrocortisone]

>  <Tested system>
A549-GM130-SQSTM1

>  <Relation operator>
≤

>  <Quantitative readout>
0.3

$$$$
>  <Compound>
CCCCOc1c(C(=O)c2c(F)cc(C)cc2F)cnc2[nH]ncc12

>  <Tested system>
A549-GM130-SQSTM1

>  <Relation operator>
=

>  <Quantitative readout>
1

$$$$
>  <Compound>
CCCCCCCCCCCCC/C=C/[C@@H](O)[C@H](CO)N(C)C

>  <Tested system>
A549-GM130-SQSTM1

>  <Relation operator>
=

>  <Quantitative readout>
1

$$$$
>  <Compound>
Cc1cc(/N=N/c2ccc(S(=O)(=O)Nc3ccccn3)cc2)c(N)cc1O

>  <Tested system>
A549-GM130-SQSTM1

>  <Relation operator>
=

>  <Quantitative readout>
9

$$$$
>  <Compound>
O=C1NN(c2ccc(F)c(Cl)c2)C(=O)/C1=C\c1ccc([N+](=O)[O-])o1

>  <Tested system>
A549-GM130-SQSTM1

>  <Relation operator>
=

>  <Quantitative readout>
3

$$$$
>  <Compound>
CC[C@@H](N)CNc1ccnc(-c2cc(-c3cnn(C)c3)ccc2O)n1

>  <Tested system>
A549-GM130-SQSTM1

>  <Relation operator>
=

>  <Quantitative readout>
1

$$$$
>  <Compound>
COc1cc(/C=C/c2ccc(OC)cc2OC)cc(OC)c1

>  <Tested system>
A549-GM130-SQSTM1

>  <Relation operator>
=

>  <Quantitative readout>
3

$$$$
>  <Compound>
O=C(CCCCCCC(=O)Nc1cccnc1)NO [Pyroxamide]

>  <Tested system>
A549-GM130-SQSTM1

>  <Relation operator>
=

>  <Quantitative readout>
3

$$$$
>  <Compound>
CON(C)C(=O)N1N=C(c2cc(F)ccc2F)S[C@@]1(CCCN)c1ccccc1 [ARRY 520 trifluoroacetate]

>  <Tested system>
A549-GM130-SQSTM1

>  <Relation operator>
≤

>  <Quantitative readout>
0.3

$$$$
>  <Compound>
Cc1cn(CCN2CCN(c3ccccc3-c3cc(C#N)cc(C(=O)NCCCN4CCCC4)c3)CC2)c2ccccc12

>  <Tested system>
A549-GM130-SQSTM1

>  <Relation operator>
=

>  <Quantitative readout>
1

$$$$
>  <Compound>
COc1ccc(-c2ccc3ncc4c(c3c2)n(-c2ccc(N3CCNCC3)c(C(F)(F)F)c2)c(=O)n4C)cn1

>  <Tested system>
A549-GM130-SQSTM1

>  <Relation operator>
≤

>  <Quantitative readout>
0.3

$$$$
>  <Compound>
O=c1c(-c2ccc(O)cc2)coc2cc(O)cc(O)c12

>  <Tested system>
A549-GM130-SQSTM1

>  <Relation operator>
=

>  <Quantitative readout>
9

$$$$
>  <Compound>
C[C@]1(O)C[C@@H](c2nc(-c3ccc4ccc(-c5ccccc5)nc4c3)c3c(N)nccn32)C1

>  <Tested system>
A549-GM130-SQSTM1

>  <Relation operator>
≤

>  <Quantitative readout>
0.3

$$$$
>  <Compound>
CC[C@]12CCCN3CCc4c(n(c5ccccc45)C(=O)C1)[C@@H]32 [Eburnamonine (-)]

>  <Tested system>
A549-GM130-SQSTM1

>  <Relation operator>
=

>  <Quantitative readout>
9

$$$$
>  <Compound>
COc1cc2nccc(Oc3ccc(NC(=O)C4(C(=O)Nc5ccc(F)cc5)CC4)cc3)c2cc1OC

>  <Tested system>
A549-GM130-SQSTM1

>  <Relation operator>
=

>  <Quantitative readout>
3

$$$$
>  <Compound>
Cc1ccc([N+](=O)[O-])cc1S(=O)(=O)N(C)/N=C/c1cnc2ccc(Br)cn12

>  <Tested system>
A549-GM130-SQSTM1

>  <Relation operator>
≤

>  <Quantitative readout>
0.3

$$$$
>  <Compound>
Cc1c(C(=O)N2CCOc3ccc(-c4ccc(N)nc4)cc3C2)ccc(S(C)(=O)=O)c1F

>  <Tested system>
A549-GM130-SQSTM1

>  <Relation operator>
=

>  <Quantitative readout>
3

$$$$
>  <Compound>
COc1cc(O)cc(O)c1C(=O)/C=C/c1ccccc1

>  <Tested system>
A549-GM130-SQSTM1

>  <Relation operator>
=

>  <Quantitative readout>
9

$$$$
>  <Compound>
COc1ccc(CCN(C)CCCC(C#N)(c2ccc(OC)c(OC)c2)C(C)C)cc1OC (stereo unspecified)

>  <Tested system>
A549-GM130-SQSTM1

>  <Relation operator>
=

>  <Quantitative readout>
9

$$$$
>  <Compound>
Cc1noc(C)c1-c1ccc2c(c1)nc(CCc1ccc(OCCCN(C)C)cc1)n2CCN1CCOCC1

>  <Tested system>
A549-GM130-SQSTM1

>  <Relation operator>
=

>  <Quantitative readout>
3

$$$$
>  <Compound>
Nc1ncnc2c1c(-c1cnc3[nH]ccc3c1)nn2C1CCCC1

>  <Tested system>
A549-GM130-SQSTM1

>  <Relation operator>
≤

>  <Quantitative readout>
0.3

$$$$
>  <Compound>
CC(=O)O[C@@]12CO[C@@H]1C[C@H](O)[C@@]1(C)C(=O)[C@H](O)C3=C(C)[C@@H](OC(=O)[C@H](O)[C@@H](NC(=O)OC(C)(C)C)c4ccccc4)C[C@](O)([C@@H](OC(=O)c4ccccc4)[C@H]21)C3(C)C

>  <Tested system>
A549-GM130-SQSTM1

>  <Relation operator>
≤

>  <Quantitative readout>
0.3

$$$$
>  <Compound>
COc1cccc(-c2cc(F)ccc2[C@H]2Cc3nc(N)nc(C)c3C(=O)N2)n1

>  <Tested system>
A549-GM130-SQSTM1

>  <Relation operator>
≤

>  <Quantitative readout>
0.3

$$$$
>  <Compound>
Cc1ccc(O)c([C@H](CCN(C(C)C)C(C)C)c2ccccc2)c1 [Tolterodine L-tartrate]

>  <Tested system>
A549-GM130-SQSTM1

>  <Relation operator>
=

>  <Quantitative readout>
9

$$$$
>  <Compound>
C[C@@H](N)[C@H]1CC[C@H](C(=O)Nc2ccncc2)CC1

>  <Tested system>
A549-GM130-SQSTM1

>  <Relation operator>
=

>  <Quantitative readout>
9

$$$$
>  <Compound>
O=C1c2ccccc2-c2nc3nonc3nc21

>  <Tested system>
A549-GM130-SQSTM1

>  <Relation operator>
=

>  <Quantitative readout>
3

$$$$
>  <Compound>
CC(C)(C)c1cc(C(=O)/C=C/c2ccc(C(=O)O)cc2)cc(C(C)(C)C)c1

>  <Tested system>
A549-GM130-SQSTM1

>  <Relation operator>
=

>  <Quantitative readout>
1

$$$$

Sourced from the supplement of paper PMC7411054
